A compilation of published Ki results with Prothrombin (Homo sapiens, UniProt P00734).
Records here are stratified by Ki; strata: LOW (below 200 nM), MID (200 nM to below 2000 nM), HIGH (2000 nM or more)

Please review the following examples before continuing.
1) NC[C@H]1CC[C@H](C(=O)N[C@@H](Cc2ccccc2)c2nc(-c3ccc4c(N)n[nH]c4c3)c(Cl)[nH]2)CC1.O=C(O)C(F)(F)F
HIGH
2) Cc1cc2ccc1[C@@H](C)COC(=O)Nc1ccc(C3(C(=O)O)CCCCC3)c(c1)CN(C)C(=O)[C@@H]2Nc1ccc2c(N)ncc(F)c2c1
HIGH
3) COC(=O)CC1(C(=O)Nc2ncc(-c3ccccc3S(N)(=O)=O)cn2)CC(c2cccc(C(=N)N)c2)=NO1.O=C(O)C(F)(F)F (single isomer, unassigned; (-))
HIGH

Qu. Could you tell me which band `N=C(N)NCCC[C@H](NS(=O)(=O)c1cccc2ccccc12)C(=O)N1CCN(C(=O)CCCCCCCCCCCN)CC1` belongs to?
Ans. HIGH

Qu. Another molecule: `c1ccc(COc2ccc(CCNc3ccncc3)cc2)cc1`
Ans. HIGH

Qu. Please answer likewise for `CC1(C)[C@@H]2C[C@H]3OB([C@H](CCCCN)NC(=O)[C@@H]4CCCN4C(=O)c4cccc(Oc5ccccc5)c4)O[C@@]3(C)[C@H]1C2`
Ans. LOW

Qu. Subsequent entry: `COc1ccc(-n2nc(C)cc2C(=O)Nc2ccc(-c3ccccc3S(N)(=O)=O)cc2)cc1CN`
Ans. HIGH

Qu. Same thing, different molecule: `Cc1cc(OCC/C=N/N=C(N)N)cc(OCc2ccccc2C(F)(F)F)c1`
Ans. MID

Qu. Also `CCc1nc2cc(OC3CCN(C(C)=N)CC3)ccc2n1Cc1ccc(-c2cccc(C(=N)N)c2)cc1` ?
Ans. MID

Qu. Also need `CCc1nc2ccc(OC3CCN(C(C)=N)CC3)cc2n1Cc1cccc(-c2ccc(C(=N)N)cc2)c1` , thanks.
Ans. HIGH

Qu. Follow-up entry: `O=C1CN(S(=O)(=O)c2cc3ccc(Cl)cc3s2)CCN1Cc1cc2c(O)[nH]ccc-2n1`
Ans. HIGH

Qu. How about this molecule: CC(C)(C)OC(=O)N[C@H](Cc1ccc(Cl)c(Cl)c1)C(=O)N1CCC[C@H]1C(=O)NCC1CCc2nc(N)ncc2C1 (stereo partly drawn)
Ans. HIGH

Qu. Quick one: N=C(N)c1ccc2c(ccn2CC(=O)N2CCC(C(O)c3ccccc3)CC2)c1 (stereo not drawn)
Ans. HIGH

Qu. Do the same for `N=C(N)c1ccc(CNC(=O)[C@@H]2Cc3ccc(cc3)NC(=O)CN3CCCN(CC3)CC(=O)Nc3ccc(cc3)C[C@@H](NS(=O)(=O)Cc3ccccc3)C(=O)N2)cc1` please
Ans. HIGH

Qu. And what about the molecule `C[C@H](NC(=O)[C@H](CCC(N)=O)NC(=O)[C@@H](N)CCCNC(=N)N)C(=O)N[C@@H](CCCNC(=N)N)C(=O)c1nc2ccccc2s1` ?
Ans. MID

Qu. Next: `O=C(Nc1ccc(Cl)cc1)c1ccc(F)cc1NC(=O)c1sc2ccccc2c1Cl`
Ans. HIGH

Qu. What do you have for `Cc1cnc(NCCc2ccccc2)c(=O)n1CC(=O)NCc1cnc(N)nc1` ?
Ans. MID

Qu. Further, for `N[C@@H](C(=O)N1CCC[C@H]1C(=O)NCc1cc(Cl)ccc1Cl)C(c1ccccc1)c1ccccc1` ?
Ans. LOW
